In this section we review reported self-cleavage values for a set of variants.
B1: Twister Ribozyme (parent)
chain: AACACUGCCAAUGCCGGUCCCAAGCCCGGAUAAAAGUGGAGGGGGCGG

- Variants of: B1
- ASSAY REMARKS: self-cleavage, relative activity (ratio to wild type); higher = more cleavage; co-transcriptional
OBSERVABLE: self-cleavage

>>> quantitative_result("U37C G41C")
0.087
>>> quantitative_result("G28C A34U")
0.567
>>> quantitative_result("A22C G38C")
0.976
>>> quantitative_result("U31G G43A")
0.324
>>> quantitative_result("A1C U31A")
0.168
>>> quantitative_result("G13A C20A")
0.09
>>> quantitative_result("C26U G39U")
0.102
>>> quantitative_result("A10C C14G")
0.289
>>> quantitative_result("A23U G44A")
0.679
>>> quantitative_result("A35U G44C")
0.974
>>> quantitative_result("G28C G43A")
0.228
>>> quantitative_result("C15G A34C")
0.0577
>>> quantitative_result("G16U A30U")
1.08
>>> quantitative_result("C15A C27G")
0.0735
>>> quantitative_result("U12C G36U")
0.543
>>> quantitative_result("G16U G43C")
0.183
>>> quantitative_result("C14G G42A")
0.0786
>>> quantitative_result("C3G C25G")
0.109
>>> quantitative_result("C15A G36A")
0.165
